Angiotensin-converting enzyme (Homo sapiens, UniProt P12821) data, read-out pIC50
Sequence (P12821 whole entry): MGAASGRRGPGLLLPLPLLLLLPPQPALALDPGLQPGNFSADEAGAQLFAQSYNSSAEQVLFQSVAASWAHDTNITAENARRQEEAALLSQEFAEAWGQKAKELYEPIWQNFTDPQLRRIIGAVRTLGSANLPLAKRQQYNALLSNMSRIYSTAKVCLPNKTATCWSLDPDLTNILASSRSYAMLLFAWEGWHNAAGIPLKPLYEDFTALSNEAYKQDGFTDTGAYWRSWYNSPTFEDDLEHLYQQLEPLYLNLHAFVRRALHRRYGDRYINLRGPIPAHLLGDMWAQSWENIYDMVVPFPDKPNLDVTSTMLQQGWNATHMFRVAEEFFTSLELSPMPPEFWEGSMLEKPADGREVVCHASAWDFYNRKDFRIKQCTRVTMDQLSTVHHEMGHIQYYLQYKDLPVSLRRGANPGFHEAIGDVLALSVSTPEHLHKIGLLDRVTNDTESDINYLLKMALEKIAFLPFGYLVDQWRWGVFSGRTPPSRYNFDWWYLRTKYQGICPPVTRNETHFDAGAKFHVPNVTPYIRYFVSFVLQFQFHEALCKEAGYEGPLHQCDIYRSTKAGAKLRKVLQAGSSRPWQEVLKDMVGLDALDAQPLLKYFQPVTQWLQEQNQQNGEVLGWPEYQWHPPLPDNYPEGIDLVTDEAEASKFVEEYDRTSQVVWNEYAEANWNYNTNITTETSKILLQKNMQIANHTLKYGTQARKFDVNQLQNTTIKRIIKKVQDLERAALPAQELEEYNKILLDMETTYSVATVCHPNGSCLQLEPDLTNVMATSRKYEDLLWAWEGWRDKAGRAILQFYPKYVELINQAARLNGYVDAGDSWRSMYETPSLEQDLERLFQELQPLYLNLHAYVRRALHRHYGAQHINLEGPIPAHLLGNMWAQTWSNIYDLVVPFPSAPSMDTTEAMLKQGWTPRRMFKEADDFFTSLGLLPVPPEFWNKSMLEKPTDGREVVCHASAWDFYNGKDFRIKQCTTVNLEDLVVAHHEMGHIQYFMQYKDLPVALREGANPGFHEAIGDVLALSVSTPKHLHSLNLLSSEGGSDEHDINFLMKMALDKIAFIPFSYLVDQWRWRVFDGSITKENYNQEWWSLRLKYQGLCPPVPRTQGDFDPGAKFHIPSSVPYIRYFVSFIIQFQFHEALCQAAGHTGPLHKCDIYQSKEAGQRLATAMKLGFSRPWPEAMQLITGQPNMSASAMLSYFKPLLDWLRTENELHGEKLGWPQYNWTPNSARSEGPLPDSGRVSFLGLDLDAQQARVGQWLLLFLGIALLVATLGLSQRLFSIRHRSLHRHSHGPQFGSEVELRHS
pIC50: −log10 of the molar value.

- compound: "O=C(O)CN(CCN(CC(=O)O)CC(=O)O)CC(=O)O"
  pIC50: 4.85
- compound: "CCCCCCC[C@H](N)[C@H](O)C(=O)N(C)[C@@H](CC[S+](C)[O-])C(=O)N[C@@H](Cc1ccc(O)cc1)C(=O)O (some centres not stated)"
  pIC50: 4.51
